# EXPERIMENTAL_TARGET: Nuclear receptor subfamily 1 group I member 2 (Homo sapiens)
# METHOD_DESCRIPTION: Human pregnane X receptor (PXR) small molecule agonists, qHTS assay (AID 1346982); further: nearly all actives have a fitted effect of over 35% in size
# SETUP_CONDITIONS: PXR-Luc HepG2, CYP3A4 luciferase reporter, 24 h; series mostly up to 92.4 µM
Records with an inconclusive call do not appear. Calls of active or inactive are those of the source. The call rests on the fitted dose curve; in most records, active means well fitted activation curve with a large enough effect in the repeat runs; inconclusive means weak or mixed curves; inactive means no such curve, though single readings can be large or run the other way.
Labels: Y = active, N = inactive

{"COMPOUND": "C/C=C(/C(=C/C)c1ccc(O)cc1)c1ccc(O)cc1", "LABEL_CLASS": "N"}
{"COMPOUND": "COC(=O)c1nc(Cl)c(Cl)nc1N", "LABEL_CLASS": "Y"}
{"COMPOUND": "CC1(CN2CCC(n3c(=O)[nH]c4ccccc43)CC2)OCc2ccccc2-n2cccc21 (configuration not stated)", "LABEL_CLASS": "Y"}
{"COMPOUND": "CC(C)=CCC1C(=O)N(c2ccccc2)N(c2ccccc2)C1=O", "LABEL_CLASS": "Y"}
{"COMPOUND": "Cc1cc(C)cc(N)c1", "LABEL_CLASS": "Y"}
{"COMPOUND": "c1ccc(C[n+]2cccc3ccccc32)cc1", "LABEL_CLASS": "N"}
{"COMPOUND": "O=C1c2ccccc2C(=O)N1CCc1noc(-c2ccc(CN3CCCCCC3)s2)n1", "LABEL_CLASS": "Y"}
{"COMPOUND": "Nc1nc2ccc([N+](=O)[O-])cc2s1", "LABEL_CLASS": "Y"}
{"COMPOUND": "CCOC(=O)c1ccccc1C(=C1C=C(Br)C(=O)C(Br)=C1)c1cc(Br)c(O)c(Br)c1", "LABEL_CLASS": "Y"}
{"COMPOUND": "O=c1cc(-c2ccccc2)oc2ccc3ccccc3c12", "LABEL_CLASS": "Y"}
{"COMPOUND": "Oc1cccc(Nc2ccccc2)c1", "LABEL_CLASS": "Y"}
{"COMPOUND": "CCCCCC[C@@H](O)C/C=C\\CCCCCCCC(=O)OCC(O)CO (some centres not stated)", "LABEL_CLASS": "Y"}
{"COMPOUND": "O[C@@H]1CO[C@H]2[C@@H]1OC[C@@H]2O", "LABEL_CLASS": "N"}
{"COMPOUND": "CCCCOc1ccc(OCCCN2CCOCC2)cc1", "LABEL_CLASS": "Y"}
{"COMPOUND": "O=C(OC(=O)c1ccccc1)c1ccccc1", "LABEL_CLASS": "N"}
{"COMPOUND": "C=C1c2cccc(O)c2C(O)=C2C(=O)[C@]3(O)C(O)=C(C(N)=O)C(=O)[C@@H](N(C)C)[C@@H]3[C@@H](O)[C@H]12", "LABEL_CLASS": "N"}
{"COMPOUND": "CN1C(=O)c2ccccc2C1=O", "LABEL_CLASS": "N"}
{"COMPOUND": "C(=C\\c1ccccc1)/c1ccccc1", "LABEL_CLASS": "N"}
{"COMPOUND": "C=C/C(C)=C/C/C=C(\\C)CCC=C(C)C", "LABEL_CLASS": "Y"}
{"COMPOUND": "CCC=CC#N", "LABEL_CLASS": "Y"}
{"COMPOUND": "O=C(OCC(O)CO)c1ccccc1Nc1ccnc2cc(Cl)ccc12 (configuration not stated)", "LABEL_CLASS": "Y"}
{"COMPOUND": "CC(CO)CO", "LABEL_CLASS": "N"}
{"COMPOUND": "CC1CC(C)C(=O)C1=O (configuration not stated)", "LABEL_CLASS": "N"}
{"COMPOUND": "Cc1cc(O)c(C)c(C)c1O", "LABEL_CLASS": "N"}
{"COMPOUND": "O=Cc1c2ccccc2c(Cl)c2ccccc12", "LABEL_CLASS": "N"}
{"COMPOUND": "CC(C)=CC(=O)C=C(C)C", "LABEL_CLASS": "N"}
{"COMPOUND": "c1csc(SSc2cccs2)c1", "LABEL_CLASS": "Y"}
